System: Plasmodium falciparum 3D7
Assay: P. falciparum 3D7 asexual blood stage assay, Assay Procedure Version 1 (SYBR green readout)
Assay type: cell-based
Conditions: 3D7, Erythrocyte, Version 1 of the assay procedure (no asterisk), 72 h incubation in infected erythrocytes, 10,000 nM to 0.51 nM
pIC50: −log10 of the molar value.
measurement_name: pIC50

For orientation, consider the following solved cases.
| compound | pIC50 |
| --- | --- |
| C[C@@]1(c2cccc(Nc3ccc(C(F)(F)F)nc3)c2Cl)CC(=O)N(C2CCOCC2)C(=N)N1 | 6.37 |
| CC1(CN2C(=N)N[C@](C)(c3cccc(Nc4ccc(F)cc4)c3Cl)CC2=O)COC1 | 5.55 |
| C[C@@]1(c2cccc(Nc3ccccc3)c2Cl)CC(=O)N([C@@H]2CCOC2)C(=N)N1 (relative stereo) | 7.15 |

(I) C[C@@]1(c2cccc(Nc3ccccc3)c2Cl)CC(=O)N(C2CCCCC2)C(=N)N1
(II) C[C@@]1(c2cccc(Nc3ccc(F)c(Cl)c3)c2Cl)CC(=O)N(C2CCOCC2)C(=N)N1
(III) C[C@@]1(c2ccc(F)c(Nc3ccc(F)cc3)c2Cl)CC(=O)N(C2CCOCC2)C(=N)N1
(IV) C[C@@]1(c2cccc(Nc3ccc(Cl)c(F)c3)c2Cl)CC(=O)N(C2CCOCC2)C(=N)N1
(V) C[C@@]1(c2cccc(Nc3ccccc3)c2Cl)CC(=O)N(C2CCOCC2)C(=N)N1
Rank order required: pIC50, descending. Provide the ranking by listing each label in its place in the requested order. I, V, III, II, IV
(I: 7.12, V: 6.82, III: 6.61, II: 6.20, IV: 5.74)
